Measurement Protocol: Plasma pharmacokinetics of BI 187004 after single oral doses (LC–MS/MS)
Assay Context: male, human, plasma, po, 5 mg, Plasma concentration gMean, 5 mg single oral; 3 h
Experimental Readout: concentration at 3 h
A complete answer gives the number followed by the unit.

In plain terms, N#Cc1ccc2c(c1)[C@H]1CCCN(C(=O)c3ccc4[nH]cnc4c3)[C@H]1C2 has a documented concentration at 3 h of 113 nM

---

Measurement Protocol: BI 187004 concentration in subcutaneous adipose tissue biopsies (LC–MS/MS)
Format: in vivo, human
Assay Context: male, human, subcutaneous adipose tissue, oral; 10 mg single dose; 10 h; read-out: AT:plasma ratio (range) 10 h
Experimental Readout: Kp at 10 h
Answer with the value's number alone.

In plain terms, N#Cc1ccc2c(c1)[C@H]1CCCN(C(=O)c3ccc4[nH]cnc4c3)[C@H]1C2 has a documented Kp at 10 h of 10.3

---

Measurement Protocol: Plasma pharmacokinetics of BI 187004 after single oral doses (LC–MS/MS)
Assay Context: male, human, plasma, po, 10 mg, Plasma concentration gMean, 10 mg single oral; 48 h
Experimental Readout: concentration at 48 h
A complete answer gives the number followed by the unit.

In plain terms, N#Cc1ccc2c(c1)[C@H]1CCCN(C(=O)c3ccc4[nH]cnc4c3)[C@H]1C2 has a documented concentration at 48 h of 0.0205 µM

---

Measurement Protocol: Plasma pharmacokinetics of BI 187004 after single oral doses (LC–MS/MS)
Assay Context: male, human, plasma, po, 40 mg, BI 187004 plasma concentrations, 40 mg single oral, planned time 12 h, Max
Experimental Readout: concentration at 12 h (nM)
Only the number, expressed in nM, is required.

In plain terms, N#Cc1ccc2c(c1)[C@H]1CCCN(C(=O)c3ccc4[nH]cnc4c3)[C@H]1C2 [BI 187004] has a documented concentration at 12 h of 984

---

Measurement Protocol: Plasma pharmacokinetics of BI 187004 after single oral doses (LC–MS/MS)
Assay Context: male, human, plasma, po, 240 mg, BI 187004 plasma concentrations, Max, 240 mg single oral, planned time 3 h
Experimental Readout: concentration at 3 h (µM)
Only the number, expressed in µM, is required.

In plain terms, N#Cc1ccc2c(c1)[C@H]1CCCN(C(=O)c3ccc4[nH]cnc4c3)[C@H]1C2 has a documented concentration at 3 h of 6.98

---

Measurement Protocol: Plasma pharmacokinetics of BI 187004 after single oral doses (LC–MS/MS)
Assay Context: male, human, plasma, po, 160 mg, BI 187004 plasma concentrations, 160 mg single oral, planned time 36 h, Median
Experimental Readout: concentration at 36 h
A complete answer gives the number followed by the unit.

In plain terms, N#Cc1ccc2c(c1)[C@H]1CCCN(C(=O)c3ccc4[nH]cnc4c3)[C@H]1C2 has a documented concentration at 36 h of 604 nM

---

Measurement Protocol: Plasma pharmacokinetics of BI 187004 after single oral doses (LC–MS/MS)
Assay Context: male, human, plasma, po, 40 mg, BI 187004 plasma concentrations, 40 mg single oral, planned time 12 h, Min
Experimental Readout: concentration at 12 h (nM)
Only the number, expressed in nM, is required.

In plain terms, N#Cc1ccc2c(c1)[C@H]1CCCN(C(=O)c3ccc4[nH]cnc4c3)[C@H]1C2 has a documented concentration at 12 h of 359

---

Measurement Protocol: Plasma pharmacokinetics of BI 187004 after single oral doses (LC–MS/MS)
Assay Context: male, human, plasma, po, 5 mg, Plasma concentration gMean, 5 mg single oral; 96 h
Experimental Readout: concentration at 96 h (nM)
Only the number, expressed in nM, is required.

In plain terms, N#Cc1ccc2c(c1)[C@H]1CCCN(C(=O)c3ccc4[nH]cnc4c3)[C@H]1C2 has a documented concentration at 96 h of 4.6

---

Measurement Protocol: Plasma pharmacokinetics of BI 187004 after single oral doses (LC–MS/MS)
Assay Context: male, human, plasma, po, 240 mg, BI 187004 plasma concentrations, Max, 240 mg single oral, planned time 2.5 h
Experimental Readout: concentration at 2.5 h (µM)
Only the number, expressed in µM, is required.

In plain terms, N#Cc1ccc2c(c1)[C@H]1CCCN(C(=O)c3ccc4[nH]cnc4c3)[C@H]1C2 has a documented concentration at 2.5 h of 8.51

---

Measurement Protocol: Plasma pharmacokinetics of BI 187004 after single oral doses (LC–MS/MS)
Assay Context: male, human, plasma, po, 240 mg, BI 187004 plasma concentrations, gMean, 240 mg single oral, planned time 24 h
Experimental Readout: concentration at 24 h (nM)
Only the number, expressed in nM, is required.

In plain terms, N#Cc1ccc2c(c1)[C@H]1CCCN(C(=O)c3ccc4[nH]cnc4c3)[C@H]1C2 [BI 187004] has a documented concentration at 24 h of 2130

---

Measurement Protocol: Plasma pharmacokinetics of BI 187004 after single oral doses (LC–MS/MS)
Assay Context: male, human, plasma, po, 360 mg, BI 187004 plasma concentrations, Median, 360 mg single oral, planned time 72 h
Experimental Readout: concentration at 72 h (nM)
Only the number, expressed in nM, is required.

In plain terms, N#Cc1ccc2c(c1)[C@H]1CCCN(C(=O)c3ccc4[nH]cnc4c3)[C@H]1C2 has a documented concentration at 72 h of 281

---

Measurement Protocol: Plasma pharmacokinetics of BI 187004 after single oral doses (LC–MS/MS)
Assay Context: male, human, plasma, po, 360 mg, BI 187004 plasma concentrations, Max, 360 mg single oral, planned time 1 h
Experimental Readout: concentration at 1 h (µM)
Only the number, expressed in µM, is required.

In plain terms, N#Cc1ccc2c(c1)[C@H]1CCCN(C(=O)c3ccc4[nH]cnc4c3)[C@H]1C2 [BI 187004] has a documented concentration at 1 h of 18.4

---

Measurement Protocol: Plasma pharmacokinetics of BI 187004 after single oral doses (LC–MS/MS)
Assay Context: male, human, plasma, po, 20 mg, BI 187004 plasma concentrations, 20 mg single oral, planned time 4 h, Mean
Experimental Readout: concentration at 4 h

In plain terms, N#Cc1ccc2c(c1)[C@H]1CCCN(C(=O)c3ccc4[nH]cnc4c3)[C@H]1C2 has a documented concentration at 4 h of 724 nM

---

Measurement Protocol: Plasma pharmacokinetics of BI 187004 after single oral doses (LC–MS/MS)
Assay Context: male, human, plasma, po, 2.5 mg, Plasma concentration, individual subjects, 2.5 mg single oral; planned time 36 h
Experimental Readout: concentration at 36 h (nM)
Only the number, expressed in nM, is required.

In plain terms, N#Cc1ccc2c(c1)[C@H]1CCCN(C(=O)c3ccc4[nH]cnc4c3)[C@H]1C2 has a documented concentration at 36 h of 5.06

---

Measurement Protocol: Plasma pharmacokinetics of BI 187004 after single oral doses (LC–MS/MS)
Assay Context: male, human, plasma, po, 10 mg, Plasma concentration Mean, 10 mg single oral; 0.5 h
Experimental Readout: concentration at 0.5 h (nM)
Only the number, expressed in nM, is required.

In plain terms, N#Cc1ccc2c(c1)[C@H]1CCCN(C(=O)c3ccc4[nH]cnc4c3)[C@H]1C2 has a documented concentration at 0.5 h of 365

---

Measurement Protocol: Plasma pharmacokinetics of BI 187004 after single oral doses (LC–MS/MS)
Assay Context: male, human, plasma, po, 80 mg, BI 187004 plasma concentrations, 80 mg single oral, planned time 36 h, gMean
Experimental Readout: concentration at 36 h (µM)
Only the number, expressed in µM, is required.

In plain terms, N#Cc1ccc2c(c1)[C@H]1CCCN(C(=O)c3ccc4[nH]cnc4c3)[C@H]1C2 has a documented concentration at 36 h of 0.383

---

Measurement Protocol: Plasma pharmacokinetics of BI 187004 after single oral doses (LC–MS/MS)
Assay Context: male, human, plasma, po, 240 mg, BI 187004 plasma concentrations, Mean, 240 mg single oral, planned time 4 h
Experimental Readout: concentration at 4 h (µM)
Only the number, expressed in µM, is required.

In plain terms, N#Cc1ccc2c(c1)[C@H]1CCCN(C(=O)c3ccc4[nH]cnc4c3)[C@H]1C2 [BI 187004] has a documented concentration at 4 h of 5.51

---

Measurement Protocol: Plasma pharmacokinetics of BI 187004 after single oral doses (LC–MS/MS)
Assay Context: male, human, plasma, po, 160 mg, BI 187004 plasma concentrations, 160 mg single oral, planned time 8 h, Max
Experimental Readout: concentration at 8 h (µM)
Only the number, expressed in µM, is required.

In plain terms, N#Cc1ccc2c(c1)[C@H]1CCCN(C(=O)c3ccc4[nH]cnc4c3)[C@H]1C2 [BI 187004] has a documented concentration at 8 h of 4.58

---

Measurement Protocol: Plasma pharmacokinetics of BI 187004 after single oral doses (LC–MS/MS)
Assay Context: male, human, plasma, po, 160 mg, BI 187004 plasma concentrations, 160 mg single oral, planned time 12 h, Max
Experimental Readout: concentration at 12 h

In plain terms, N#Cc1ccc2c(c1)[C@H]1CCCN(C(=O)c3ccc4[nH]cnc4c3)[C@H]1C2 [BI 187004] has a documented concentration at 12 h of 3.64 µM

All values here come from paper PMC8364686.
